Reported values of glycan array binding signal (z-score) for individual entries
biological target: Gal(b1-4)GlcNAc(b1-2)Man(a1-6)[GlcNAc(b1-2)Man(a1-3)]Man(b1-4)GlcNAc(b1-4)GlcNAc; experiment: glycan array binding signal (z-score within array); higher = stronger binding; settings: glycan notation: IUPAC condensed, linker removed
This excerpt belongs to a sample that is enriched for the strongest signals.
Experimental endpoint: glycan array binding signal (z-score)

INSERT INTO results (binder, readout_value) VALUES
  ('AcfC (Vibrio cholerae), Q57410 (protein) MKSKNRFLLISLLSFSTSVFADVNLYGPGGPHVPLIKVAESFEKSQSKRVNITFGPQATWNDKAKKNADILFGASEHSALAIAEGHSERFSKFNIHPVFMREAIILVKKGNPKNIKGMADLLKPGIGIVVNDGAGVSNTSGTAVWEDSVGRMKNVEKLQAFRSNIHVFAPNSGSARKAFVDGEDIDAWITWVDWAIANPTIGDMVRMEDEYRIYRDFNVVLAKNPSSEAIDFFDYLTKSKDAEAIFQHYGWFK', 0.212),
  ('Na-CTL-1 (Necator americanus) (protein) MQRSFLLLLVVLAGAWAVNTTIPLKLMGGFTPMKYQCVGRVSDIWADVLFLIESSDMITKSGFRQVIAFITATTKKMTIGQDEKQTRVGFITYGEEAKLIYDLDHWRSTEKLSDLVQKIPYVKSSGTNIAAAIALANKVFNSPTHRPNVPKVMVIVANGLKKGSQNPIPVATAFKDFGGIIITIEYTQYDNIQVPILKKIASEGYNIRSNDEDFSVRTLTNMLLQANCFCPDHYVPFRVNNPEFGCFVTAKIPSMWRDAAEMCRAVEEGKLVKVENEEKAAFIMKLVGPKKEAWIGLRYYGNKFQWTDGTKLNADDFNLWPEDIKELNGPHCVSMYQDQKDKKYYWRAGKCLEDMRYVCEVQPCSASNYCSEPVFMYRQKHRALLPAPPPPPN', -0.602),
  ('Epa12 (Candida glabrata) (protein) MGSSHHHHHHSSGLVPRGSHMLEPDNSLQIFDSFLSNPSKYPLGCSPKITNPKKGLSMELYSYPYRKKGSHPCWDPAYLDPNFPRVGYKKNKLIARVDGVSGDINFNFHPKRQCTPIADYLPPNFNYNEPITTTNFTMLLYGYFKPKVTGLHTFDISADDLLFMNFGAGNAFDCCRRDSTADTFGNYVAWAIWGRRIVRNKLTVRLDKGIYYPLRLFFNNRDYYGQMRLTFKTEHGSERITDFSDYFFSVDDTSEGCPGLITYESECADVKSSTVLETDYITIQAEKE', -0.119),
  ('SSR2 (Sclerotium rolfsii) (protein) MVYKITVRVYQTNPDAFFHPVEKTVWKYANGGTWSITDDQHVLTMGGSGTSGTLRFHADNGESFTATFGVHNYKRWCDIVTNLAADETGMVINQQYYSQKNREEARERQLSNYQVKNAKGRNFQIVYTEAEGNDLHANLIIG', 3.34);
